Test Method Notes: AUC in SCID mouse at 25 mg/kg, po by LCMS/MS method
Type: ADME, organism-based
Set-up: dose 25 mg/kg, route oral
Condition Notes: plasma
Measured Endpoint: AUC (ng·h/mL)

COc1ccc2c(c1)[C@]1(C[C@H]1c1ccc3c(/C=C/c4ccc(CN(C)C)cc4)n[nH]c3c1)C(=O)N2 (relative stereo) :: 730

I. CN1CCN(Cc2ccc(/C=C/c3n[nH]c4cc([C@@H]5C[C@@]56C(=O)Nc5ccccc56)ccc34)cc2)CC1 (relative stereo)
II. O=C1Nc2ccc(F)cc2[C@]12C[C@H]2c1ccc2c(/C=C/c3ccc(CN4CCOCC4)cc3)n[nH]c2c1
Given I and II , report the one with the higher recorded AUC. // respond with label for picked entry II
(II: 7940 ng·h/mL, I: 580 ng·h/mL)
